melting point reference

Example cases with answers are listed next.
CCNC(=O)c1c(Cl)cc(C=O)cc1[Si](C)(C)C
95 to 97 °C
COC(=O)C1(Cl)CC(=O)N(c2ccc(Cl)cc2)C1=C(Cl)Cl (centres undefined)
159 °C
CC(=O)OCc1ccc2oc(=O)c(C(=O)Oc3ccccc3I)cc2c1
156 to 158 °C
O=C(NC(=O)c1nnn(Cc2ccccc2)c1NC(=O)c1ccccc1)c1ccccc1
171 to 173 °C

Q: Which melting point reading was recorded for the compound CC(=O)Nc1c(C)ccc([N+](=O)[O-])c1C ?
Result: 171 to 173 °C

Q: Recorded melting point of COc1ccc(CNC(N)=O)cc1OC , please.
Result: 172 to 173 °C

Q: # input compound: Nc1c(C(=O)c2cccc(C(F)(F)F)c2)[nH]c2cc(Cl)ccc12 ; wanted: its melting point
Result: 84 to 87 °C

Q: Quick one: melting point for COc1ccc(CON(CCCBr)S(=O)(=O)c2ccc(C)cc2)cc1 ?
Result: 89.5 to 91.5 °C

Q: Which melting point is listed for CNc1cccc(S(N)(=O)=O)n1 ?
Result: 124 to 126 °C

Q: # query: melting point of entry O=C(O)CCNC(=O)C(=Cc1ccc(C(F)(F)F)cc1)CS
Result: 108 °C

Q: Return reported melting point; argument: CCOC(=O)/C=C/c1c(-c2ccc(F)cc2)n(C(C)C)c(=O)c2ccccc12
Result: 167 to 169 °C

Q: Which value of melting point has been reported for CCCc1nc2c(N)nc(C)c(C)c2n1CCCCCS(=O)(=O)c1ccccn1 in the records?
Result: 143 to 144 °C

Q: Using the record for CC(C)(c1ccccc1)c1cccc(S(=O)(=O)Cl)c1 , report its melting point.
Result: 47.5 to 49 °C

Q: Would you kindly share the measured melting point for CCOC(=O)N1CCc2c(nc3ccccc3c2C)C(Cl)C1 (centres undefined) ?
Result: 131 °C

Q: // returns reported melting point for input O=C(C1=NN(c2ccc(Cl)cc2Cl)C(c2ccc(Cl)cc2)C1)N1CCCCC1 (centres undefined)
Result: 105 to 110 °C

Q: What does the data say about its melting point? Entry: O=S(=O)(/C(=C\c1ccccc1)CO)c1ccccc1
Result: 67.5 to 69 °C

Q: Entry CC(=NO)c1ccc(N2CCN(C(=O)CCCCCCC(=O)NO)CC2)cc1 has what melting point?
Result: 147 to 148 °C

Q: Would you kindly share the measured melting point for c1ccc(-c2ccc3c4c([nH]c3c2)CCNCC4)cc1 ?
Result: 220 to 222 °C

Q: Look up melting point: O=C(O)CC(O)c1cccc(Cl)c1 (centres undefined)
Result: 94.5 to 95.5 °C

Q: Need melting point, item Cc1ccc(-n2nc(OC(=O)c3ccccc3)c3c(c2=O)Cc2ccc(Cl)cc2N3)cc1
Result: 248 to 250 °C

###

measure_name: melting point

COc1ccc(C(=O)c2sc(Nc3ccc(OCc4ccccc4)cc3)nc2N)cc1
222 to 224 °C
CCOP(=O)(Cc1ccc(NC(=O)Cc2cnoc2-c2ccccc2)cc1)OCC
132 to 133 °C
CC1CCc2nc3c(N)nc4ccccc4c3n2N1 (stereo not given)
241 to 243 °C
Cc1cc(C(O)CS(C)(=O)=O)cc(C)c1N(C)C (stereo not given)
133 to 134 °C

Let us examine a further case.
Q: # lookup: melting point of O=P1(c2ccc(-c3ccccc3)cc2)c2ccccc2CN1c1ccccc1 (stereo not given)
Result: 259 to 261 °C

###

Recorded measurements of melting point, one per entry

Please review the following examples before continuing.
CCN(CC)c1ccc(/C=C/c2cc(/C=C/c3ccc4cc[nH]c4c3)[nH]n2)c(OCc2ccccc2)c1
78.1 to 80 °C
Cc1c(F)c(Br)cc2c1c(=O)c(C(=O)O)cn2C1CC1
237 to 239 °C
CCOc1nc(C)nc2oc(-c3ccco3)nc12
104 to 106 °C
CCCNC(=O)C=Cc1ccc2ccn(Cc3ccc(C(=O)O)cc3OC)c2c1
210 to 212 °C
CC1(C)C=C(I)C(=O)C(C)(C)C1
41 to 42 °C

Q: Can you look up the measured melting point of CN(C)CCCn1ccc(-c2ccc(F)cc2)c1-c1ccncc1 for me?
Result: 93 to 95 °C

Q: Please give the measured melting point for this compound: O=C(Nc1cccnc1)N1CCc2ccc(Cl)cc21
Result: 204 to 205 °C

Q: Find the recorded melting point belonging to OCC#CC1=Cc2ccccc2Sc2ccc(Cl)cc21 and report it.
Result: 111 to 113 °C

Q: Reported melting point for O=C(C[C@@H](O)C(=O)O)c1ccccc1 : what is it?
Result: 128 to 131 °C

Q: Look at this compound and give its reported melting point. CCCOc1cccc(C2(c3ccncc3)N=C(N)N(C)C2=O)c1 (stereo unspecified)
Result: 173 to 175 °C

Q: Suppose we examine the compound c1ccc2c(NCCc3c[nH]cn3)nsc2c1 ; what melting point value has been reported?
Result: 222 to 224 °C

###

Measured melting point of individual entries

CCCc1c(OCCCc2ccc3cc(OC)c(OC)cc3c2)ccc(C(=O)O)c1O
165 to 168 °C
Cc1cccc(Cl)c1C(=O)N[C@@H](Cc1ccc(-c2cccn(C)c2=O)cc1)C(=O)O
204 to 210 °C
CC1(C)CC2(CC(C)(C)N1c1nc(Cl)nc(N3CCOCC3)n1)OCCO2
154 to 156 °C
O=C1NC(=O)C(c2ccccc2)=C1Nc1ccc(OC(F)(F)F)cc1
206 °C

// below: melting point requested for another compound
Q: Reported melting point, compound CC(=O)c1ccc2c(c1)CCCN2C(=O)c1ccc(-c2ccc(Cl)cc2)cc1 : ____
Result: 149 to 151 °C

###

measure_name: melting point

Observe how each entry below is paired with its result.
CC1(C)CC(c2c[nH]c(-c3ccc(F)cc3)c2-c2ccncc2)CC(C)(C)N1
242 to 243 °C
Cc1[nH]c(=O)c(C#N)cc1C(=O)CBr
212 to 214 °C
Fc1ccc(C2(Cn3nc[nH]c3=S)OC2c2ccccc2Cl)cc1F (stereo unspecified)
165 °C
CC(=O)N1CCC(Br)(C(=O)c2ccc(F)cc2)CC1
156 to 159 °C
Ic1nnnn1Cc1ccccc1
122 °C
CCN1C(CNC(=O)c2cc(Cl)c(N)cc2OC)CCC1c1ccccc1 (stereo unspecified)
187 to 188 °C

Q: Given CC(=O)OC1OCCC[C@@H]1NC(=O)[C@H](CC(C)C)NC(=O)OCc1ccccc1 (stereo partly specified) , state its recorded melting point.
Result: 142 to 143 °C

Q: Which melting point is listed for CCOC(=O)C1=CC2(CCC1S(=O)(=O)Nc1ccc(F)cc1Cl)OCCCCO2 (stereo unspecified) ?
Result: 142 to 144 °C

Q: So what's the measured melting point for this one? Cc1cccc(-c2[nH]c(C(C)C)nc2-c2cccc(-c3ccc(NS(C)(=O)=O)cc3)c2)n1
Result: 128 to 130 °C

###

measure_name: melting point

CCOC(=O)c1[nH]c(=O)n(C)c(=O)c1OCc1ccccc1
184 to 187 °C
Nc1ncc2cc(-c3ccccc3)c(O)nc2n1
390 to 395 °C

Q: Entry Nc1cc(Cl)c(Cl)c(Br)c1N has what melting point?
Result: 128 to 129 °C

Q: Requested field: melting point. Item: CN1CCC(=C2c3sccc3C=Cn3ccnc32)CC1
Result: 152 °C

Q: Reported melting point for O=Cc1c(Cl)cc(CO)cc1Cl : what is it?
Result: 109 to 110 °C

Q: For the compound O=C(Cc1ccccc1F)N1C(=O)OC[C@H]1c1ccccc1 , what melting point is on record?
Result: 110 to 111 °C

Q: Need melting point of CCOC(=O)c1c(-c2ccccc2Cl)c2cc(CC)sc2[nH]c1=O , thanks.
Result: 126 to 127 °C

Q: What value of melting point has been reported for the following compound? CC(C)(C)C(=O)Nc1ccc(F)c(Oc2ccc(C3CC(=O)NC(=O)C3)cc2)c1F
Result: 172 °C

Q: What does the data say about its melting point? Entry: COc1cc(C(=O)c2ccc(OC)c(OC)c2OC)cc(OC)c1OC
Result: 125 to 126 °C

Q: Name the reported melting point value associated with the compound CCCc1nc2c(N)nc3ccccc3c2n1CCOCCCS(=O)(=O)c1ccccc1
Result: 160 to 161 °C

Q: Entry under review: COC(=O)C[C@H](O)C[C@H](O)C=Cc1c(-c2ccc(F)cc2)c(-c2ccc(F)cc2)c(C(=O)Nc2ccc(S(N)(=O)=O)cc2)n1C(C)C . Reported melting point?
Result: 208 to 210 °C

Q: Value lookup for melting point; key = CCCC(=O)OCC(=O)C1(OC(=S)CC)CCC2C3CC(C)C4=CC(=O)C=CC4(C)C3C(O)CC21C (stereo not given)
Result: 126 to 128 °C

Q: Record request: melting point value, item N#Cc1ccc(N2CCC(O)CC2)c2ccccc12
Result: 126 to 127 °C

Q: Record request: melting point value, item COc1ccc(Oc2cccc3ncnc(NC(=O)Nc4cccc(Br)c4)c23)cc1
Result: 249 to 251 °C

Q: # input compound: Clc1ccc2c(CCN3CCN(c4cccc5c4OCCO5)CC3)c[nH]c2c1 ; wanted: its melting point
Result: 215 to 216 °C
